# EC50 annotations
- TESTED_TARGET: human TLR7 (Homo sapiens (Human), UniProt Q9NYK1)
- Sequence (Q9NYK1 27-1049): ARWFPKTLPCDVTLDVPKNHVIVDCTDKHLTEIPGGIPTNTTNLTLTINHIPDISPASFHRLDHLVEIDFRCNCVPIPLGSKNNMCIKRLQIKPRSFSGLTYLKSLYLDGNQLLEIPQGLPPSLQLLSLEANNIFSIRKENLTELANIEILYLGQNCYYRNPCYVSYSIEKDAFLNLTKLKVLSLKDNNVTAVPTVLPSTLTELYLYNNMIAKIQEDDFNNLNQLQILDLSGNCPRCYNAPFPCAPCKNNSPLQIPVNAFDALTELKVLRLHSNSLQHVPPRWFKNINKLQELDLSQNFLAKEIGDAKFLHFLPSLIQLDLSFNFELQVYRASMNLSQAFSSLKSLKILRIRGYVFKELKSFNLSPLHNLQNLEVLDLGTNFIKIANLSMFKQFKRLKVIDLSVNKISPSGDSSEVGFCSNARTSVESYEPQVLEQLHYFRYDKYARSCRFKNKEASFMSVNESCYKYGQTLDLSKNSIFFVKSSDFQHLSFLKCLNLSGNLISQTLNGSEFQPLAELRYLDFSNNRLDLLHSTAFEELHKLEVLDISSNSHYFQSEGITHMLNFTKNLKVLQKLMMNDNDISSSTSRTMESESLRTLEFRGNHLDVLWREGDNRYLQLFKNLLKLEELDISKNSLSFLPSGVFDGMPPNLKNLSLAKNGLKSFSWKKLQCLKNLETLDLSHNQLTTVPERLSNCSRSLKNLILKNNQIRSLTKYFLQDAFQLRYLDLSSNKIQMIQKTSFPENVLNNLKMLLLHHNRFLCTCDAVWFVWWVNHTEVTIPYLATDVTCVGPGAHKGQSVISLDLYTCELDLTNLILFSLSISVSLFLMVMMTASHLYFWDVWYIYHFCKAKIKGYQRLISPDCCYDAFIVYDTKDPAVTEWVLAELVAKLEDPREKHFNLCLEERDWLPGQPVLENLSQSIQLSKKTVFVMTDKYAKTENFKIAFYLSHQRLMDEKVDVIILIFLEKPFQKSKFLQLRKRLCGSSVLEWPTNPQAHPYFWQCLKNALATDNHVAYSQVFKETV
- PROTOCOL_SUMMARY: HEK-Blue human TLR7 cells NF-κB SEAP reporter assay
- MEASUREMENT_CONTEXT: stimulation for 20 hours
MEASUREMENT_KIND: EC50

| MOLECULE | MEASUREMENT_KIND | EXPERIMENTAL_RESULT |
| --- | --- | --- |
| CCCN(CCC)C(=O)C1=Cc2ccc(C(=O)N3CCC(Nc4ccccc4)C3)cc2N=C(N)C1 (stereo not shown) | EC50 | 14 µM |
| CCCN(CCC)C(=O)C1=Cc2ccc(C(=O)N3CC4(CCN(c5ccccc5)CC4)C3)cc2N=C(N)C1 | EC50 | 33 µM |
| CCCN(CCC)C(=O)C1=Cc2ccc(C(=O)N3CC4CC(C3)N4c3ccccc3)cc2N=C(N)C1 | EC50 | 11 µM |
| CCCN(CCC)C(=O)C1=Cc2ccc(C(=O)N3CCC4(CC3)CN(c3ccccc3)C4)cc2N=C(N)C1 | EC50 | > 100 µM |
| CCCN(CCC)C(=O)C1=Cc2ccc(C(=O)N3CC4(C3)CN(c3ccc(C)cc3)C4)cc2N=C(N)C1 | EC50 | > 100 µM |
| CCCN(CCC)C(=O)C1=Cc2ccc(C(=O)N3CCC(CNc4ccccc4)CC3)cc2N=C(N)C1 | EC50 | 10 µM |
| CCCCOC1CN(C(=O)c2ccc3c(c2)N=C(N)CC(C(=O)N(CCC)CCC)=C3)C1 | EC50 | 31.1 µM |
